ASSAY TARGET: BaF3 cell line transfected with the oncogenic fusion protein NPM-ALK and expressing the mutation L1196M (Homo sapiens, UniProt Q9UM73, L1196M, cells depend on it)
Construct: fused on or other part: P06748 (Nucleophosmin)
Sequence (Q9UM73 whole entry L1196M, the tested form may be a part): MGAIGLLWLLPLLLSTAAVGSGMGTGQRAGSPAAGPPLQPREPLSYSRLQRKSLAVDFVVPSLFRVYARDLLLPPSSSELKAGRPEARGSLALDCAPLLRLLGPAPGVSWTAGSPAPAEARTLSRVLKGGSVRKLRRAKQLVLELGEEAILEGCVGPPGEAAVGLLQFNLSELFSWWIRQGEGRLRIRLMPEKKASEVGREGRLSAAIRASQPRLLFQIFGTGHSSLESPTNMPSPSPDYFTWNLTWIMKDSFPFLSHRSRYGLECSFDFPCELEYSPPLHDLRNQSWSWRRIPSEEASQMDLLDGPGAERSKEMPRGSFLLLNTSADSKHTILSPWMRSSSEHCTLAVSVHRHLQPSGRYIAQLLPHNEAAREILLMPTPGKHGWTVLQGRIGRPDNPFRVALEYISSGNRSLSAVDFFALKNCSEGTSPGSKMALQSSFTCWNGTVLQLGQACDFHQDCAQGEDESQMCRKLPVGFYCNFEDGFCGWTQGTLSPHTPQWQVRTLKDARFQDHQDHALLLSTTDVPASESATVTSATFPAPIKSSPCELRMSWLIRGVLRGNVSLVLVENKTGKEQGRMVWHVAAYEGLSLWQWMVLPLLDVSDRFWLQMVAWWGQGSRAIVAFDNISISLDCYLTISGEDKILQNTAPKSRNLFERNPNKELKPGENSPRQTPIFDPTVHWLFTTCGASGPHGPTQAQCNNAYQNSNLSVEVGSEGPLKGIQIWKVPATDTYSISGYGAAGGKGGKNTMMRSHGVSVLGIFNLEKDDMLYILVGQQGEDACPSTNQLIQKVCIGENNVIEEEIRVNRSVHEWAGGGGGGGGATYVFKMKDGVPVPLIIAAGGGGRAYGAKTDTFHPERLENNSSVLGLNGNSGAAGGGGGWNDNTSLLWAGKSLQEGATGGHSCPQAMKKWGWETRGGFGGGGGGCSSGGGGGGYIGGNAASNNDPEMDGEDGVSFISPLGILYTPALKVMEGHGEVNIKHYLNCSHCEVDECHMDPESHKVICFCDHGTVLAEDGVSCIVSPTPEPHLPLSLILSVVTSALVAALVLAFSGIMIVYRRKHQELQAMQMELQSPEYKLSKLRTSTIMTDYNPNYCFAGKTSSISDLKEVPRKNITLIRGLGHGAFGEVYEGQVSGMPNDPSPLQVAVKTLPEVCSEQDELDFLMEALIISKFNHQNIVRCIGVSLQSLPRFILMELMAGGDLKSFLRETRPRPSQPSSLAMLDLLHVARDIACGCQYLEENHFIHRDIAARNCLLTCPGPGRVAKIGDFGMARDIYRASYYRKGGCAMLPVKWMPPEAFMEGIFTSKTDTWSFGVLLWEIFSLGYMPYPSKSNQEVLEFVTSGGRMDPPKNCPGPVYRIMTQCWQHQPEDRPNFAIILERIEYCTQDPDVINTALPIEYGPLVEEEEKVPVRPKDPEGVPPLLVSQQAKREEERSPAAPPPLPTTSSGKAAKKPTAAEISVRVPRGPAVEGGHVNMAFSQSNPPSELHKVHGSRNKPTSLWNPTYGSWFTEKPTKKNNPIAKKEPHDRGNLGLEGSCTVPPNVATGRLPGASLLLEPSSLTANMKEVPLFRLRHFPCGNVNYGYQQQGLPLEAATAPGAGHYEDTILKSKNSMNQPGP
PROTOCOL: Tritiated thymidine uptake cell proliferation assay, BaF3 NPM-ALK L1196M
Type: cell-based, murine
ASSAY CONDITIONS: percentage of inhibition of cell proliferation at 200 nM
Would you mind telling me the reported % Inhibition BaF3 NPM-ALK L1196M cells of each entry?
Answer format: numeric, % implied, no suffix.

(Q) Requested field: % Inhibition BaF3 NPM-ALK L1196M cells. Item: `CN1CCN(c2ccc(C(=O)Nc3n[nH]c4cc(-c5ccc(O)cc5F)c(Cc5cc(F)cc(F)c5)cc34)c(NC3CCOCC3)c2)CC1`
(A) 100

(Q) What value of % Inhibition BaF3 NPM-ALK L1196M cells has been reported for the following compound? `CN1CCN(c2ccc(C(=O)Nc3n[nH]c4cc(-c5ccccc5)c(Cc5cc(F)cc(F)c5)cc34)c(NC3CCOCC3)c2)CC1`
(A) 61

(Q) Sample `CN1CCN(c2ccc(C(=O)Nc3n[nH]c4cc(-c5ccc(O)cc5)c(Cc5cc(F)cc(F)c5)cc34)cc2)CC1` — what was its % Inhibition BaF3 NPM-ALK L1196M cells?
(A) 99

(Q) Request the reported % Inhibition BaF3 NPM-ALK L1196M cells associated with `CN1CCN(c2ccc(C(=O)Nc3n[nH]c4cc(-c5ccc(O)cc5)c(Cc5cc(F)cc(F)c5)cc34)c(NC3CCOCC3)c2)CC1`
(A) 83

(Q) Would you kindly share the measured % Inhibition BaF3 NPM-ALK L1196M cells for `Cc1cc(N)ncc1-c1cc2[nH]nc(NC(=O)c3ccc(N4CCN(C)CC4)cc3NC3CCOCC3)c2cc1Cc1cc(F)cc(F)c1` ?
(A) 66

(Q) GET /values?readout=% Inhibition BaF3 NPM-ALK L1196M cells&item= `CN1CCN(c2ccc(C(=O)Nc3n[nH]c4cc(-c5cncnc5)c(Cc5cc(F)cc(F)c5)cc34)c(NC3CCOCC3)c2)CC1`
(A) 62

(Q) Fill blank: measured % Inhibition BaF3 NPM-ALK L1196M cells of the compound `COCCNc1cc(N2CCN(C)CC2)ccc1C(=O)Nc1n[nH]c2cc(-c3ccc(O)c(F)c3)c(Cc3cccc(F)c3)cc12` is ____.
(A) 93

(Q) Which % Inhibition BaF3 NPM-ALK L1196M cells is listed for `CN1CCN(c2ccc(C(=O)Nc3n[nH]c4cc(-c5cncc(N)c5)c(Cc5cc(F)cc(F)c5)cc34)c(NC3CCOCC3)c2)CC1` ?
(A) 99

(Q) Which % Inhibition BaF3 NPM-ALK L1196M cells value is on record for `Cc1cc(O)ccc1-c1cc2[nH]nc(NC(=O)c3ccc(N4CCN(C)CC4)cc3)c2cc1Cc1cc(F)cc(F)c1` ?
(A) 100

(Q) Query: % Inhibition BaF3 NPM-ALK L1196M cells; subject: `CN1CCN(c2ccc(C(=O)Nc3n[nH]c4cc(-c5cccc(O)c5)c(Cc5cc(F)cc(F)c5)cc34)c(NC3CCOCC3)c2)CC1`
(A) 99

(Q) For the compound `CN1CCN(c2ccc(C(=O)Nc3n[nH]c4cc(-c5ccc(O)cc5)c(Cc5cccc(F)c5)cc34)c(NC3CCOCC3)c2)CC1` , what % Inhibition BaF3 NPM-ALK L1196M cells is on record?
(A) 100

(Q) State the recorded % Inhibition BaF3 NPM-ALK L1196M cells for this entry: `Cc1cc(-c2cc3[nH]nc(NC(=O)c4ccc(N5CCN(C)CC5)cc4NC4CCOCC4)c3cc2Cc2cc(F)cc(F)c2)ccc1O`
(A) 99

(Q) // lookup % Inhibition BaF3 NPM-ALK L1196M cells for `CN1CCN(c2ccc(C(=O)Nc3n[nH]c4cc(-c5ccc(N)nc5)c(Cc5cc(F)cc(F)c5)cc34)c(NC3CCOCC3)c2)CC1`
(A) 88

These entries and their values trace back to patent US10336707B2.
